Origin of the recorded values: the EternaBench riboswitch data

Test system: MS2 coat protein
Test: apparent Kd, MS2 coat protein; higher = weaker binding; RNA-MaP array; theophylline 2 mM where present
Settings: ligand present: theophylline; designed as: OFF switch for theophylline
Would you please tag the item true when its apparent Kd is 0.04 µM or above, and false when it is below?

Previously resolved entries follow.
residue.sequence: ACGAACGAUAGUGAUACCAGACGUACAUGAGGAUCACCCAUGUUAUACACAUGGUUUAUUGUCCCUUGGCAGCACGAUAAGUUCG
class.label: true
--
residue.sequence: UCAUUUGAGUGAGAUGUAAGGUAUCAUGAUACCAGUAGAUAAUUAUACCCUUGGCAGCAUGACAUGAGGAUCACCCAUGUACAUG
class.label: false
--
residue.sequence: AGCGACAUGCGUGAUACCAGCUACAUGAGGAUCACCCAUGUAAGUAGGAAACUACUGUGUAGCCCUUGGCAGCAUAGUGCAUGUC
class.label: true
--
residue.sequence: UAAUAUCACAUAUUAUGGGUGUAAUGUGAUACCAGCUAGGAAACUAGCCCUUGGCAGCACAUGAGGAUCACCCAUGUAAGCUGUA
class.label: true
--
residue.sequence: GAGCUGAUGUAGAAAUUUUAUUUCUGAGAUACCAGUACAGAAAUGUACCCUUGGCAGCUCAGUUUUACAUGAGGAUCACCCAUGU
class.label: false

Proceed to the following item.
Query block: Is the recorded value of apparent Kd equal to or greater than 0.04 µM for this sequence? AGCGACAUGCAUGAUACCAGCUACAUGAGGAUCACCCAUGUACGUCAGUAAUGACUGUGUAGCCCUUGGCAGCAUAGAGCAUGUC
Result block: true

====

System: MS2 coat protein
Assay: apparent Kd, MS2 coat protein; higher = weaker binding; RNA-MaP array
Conditions: designed as: OFF switch for flavin mononucleotide; no ligand
Would you please tag the item 1 (yes) when its apparent Kd is 40 nM or above, and 0 (no) when it is below?

residue.sequence: AUUGUGUAAGGAUAUUAUAGAAGAGGUAGGCAACUUCUGAAUAAGAAGGUACAUGAGGAUCACCCAUGUUCAAU
target.under.test: MS2 coat protein
class.label: 0 (no)
--
residue.sequence: GGGCCACCUCUAACAUGAGGAUCACCCAUGUUCGUCGGUUCCGAGGAUAUGUCUAGACGUAACGGACAGAAGGCGGUCCGGCUG
target.under.test: MS2 coat protein
class.label: 0 (no)
--
residue.sequence: AAUGGACGAGGAUAUACAUGAGGAUCACCCAUGUCACAGUGGGCUCACCGUUCGGGUAGUAGAAGGCGUUUCUA
target.under.test: MS2 coat protein
class.label: 1 (yes)
--
residue.sequence: CAACCACACAUAAGGCAAGGACAUGAGGAUCACCCAUGUGGUAGAAGGCAUCCUAAUGCGGACGAUGAGGAUAUACGACGUGCA
target.under.test: MS2 coat protein
class.label: 1 (yes)
--
residue.sequence: AUGUAGAAUCUAGGAUAUGCGAGAAACUGCGAAGCAGAAGGAGACUUGUACAUGAGGAUCACCCAUGUCCCGGGCGUCCCAACU
target.under.test: MS2 coat protein
class.label: 0 (no)

Proceed to the following item.
Query block: Is the recorded value of apparent Kd equal to or greater than 40 nM for this sequence? AAUAAGAAAGGAUAUACAGAGGAUAAACUAAUAAAUAAAGGACAUGAGGAUCACCCAUGUAGAAGGUUCAAAAU
Result block: 0 (no)
